System: Aβ formation in HGB 717/Swed cells
Assay: Immunoblot assay for Aβ peptide (inhibition of Aβ formation)
Format: cell-based, Human
Conditions: concentration of 75 μM, overnight, relative to DMSO control
Non-standard residues stand in square brackets, D forms with d. Residues, ends and D or L forms follow the SMILES beside them. ξ: configuration not given here. *: point of attachment. Chg = N[CH](C(=O)O)C1CCCCC1; ξNle = CCCCC(N)C(=O)O; CHN2 = [N-]=[N+]=C*
Below, each entry is listed alongside its reported % INHIBITION OF Aβ.

{"columns": ["compound", "test system", "% INHIBITION OF Aβ"],
 "data": [
  ["CC(=O)NC(CC(C)C)C(=O)NC(CC(C)C)C(=O)NC(C=O)C1CCCCC1 [Ac-L-L-Chg-(H)] (Ac-Leu-Leu-[Chg]-aldehyde; configuration not given here)", "Aβ formation in HGB 717/Swed cells", "99%"],
  ["CC=CCC(C=O)NC(=O)[C@H](CC(C)C)NC(=O)[C@H](CC(C)C)NC(C)=O (mixture of isomers)", "Aβ formation in HGB 717/Swed cells", "96%"],
  ["CCCCC(NC(=O)[C@H](CC(C)C)NC(=O)[C@H](CC(C)C)NC(C)=O)C(=O)C(F)(F)F (mixture of isomers)", "Aβ formation in HGB 717/Swed cells", "50%"],
  ["CCCCC(C#N)NC(=O)[C@H](CC(C)C)NC(=O)[C@H](CC(C)C)NC(C)=O (some centres unmarked)", "Aβ formation in HGB 717/Swed cells", "94%"]
]}

Task item: Reported % INHIBITION OF Aβ for CCCCC(NC(=O)[C@H](CC(C)C)NC(=O)[C@H](CC(C)C)NC(C)=O)C(=O)C=[N+]=[N-] (stereo partly drawn) [Ac-L-L-Nl-(DM), N-Ac-L-Leu-L-Leu-L-Nle-COCHN2] (Ac-Leu-Leu-[ξNle]-CHN2) : what is it?
Reply: 87%
